- Test system: MCF7
- test: Cytotoxicity against human MCF7 cells after 48 hrs by sulforhodamine B assay
- Assay type: functional
- particulars: Homo sapiens, MCF7, 48 h
observable: GI50
Numeric answer plus unit only.

Recorded results for 3 molecules are shown here.
input: Using known records, supply GI50 for `Clc1ccc2c(NCCNCCNCCNc3ccnc4cc(Cl)ccc34)ccnc2c1`
output: 760 nM

input: Using known records, supply GI50 for `Clc1ccc2c(NCCCNCCNc3ccnc4cc(Cl)ccc34)ccnc2c1`
output: 600 nM

input: Using known records, supply GI50 for `Clc1ccc2c(NCCCNCCNCCCNc3ccnc4cc(Cl)ccc34)ccnc2c1`
output: 380 nM

Next molecule, GI50 to be filled in.
input: Using known records, supply GI50 for `CN(CCCNc1ccnc2cc(Cl)ccc12)CCCNc1ccnc2cc(Cl)ccc12`
output: 390 nM

---

- Tested on: TK-10
- test: Cytotoxicity against human TK10 cells after 48 hrs by sulforhodamine B assay
- Assay type: functional
- particulars: Homo sapiens, TK-10, 48 h
Here the recorded TGI is given for each entry.
Numeric answer plus unit only.

Recorded results for 3 compounds are shown here.
input: Using known records, supply TGI for `Clc1ccc2c(NCCCNCCNc3ccnc4cc(Cl)ccc34)ccnc2c1`
output: 4.25 µM

input: Using known records, supply TGI for `CN(CCCNc1ccnc2cc(Cl)ccc12)CCCNc1ccnc2cc(Cl)ccc12`
output: 1 µM

input: Using known records, supply TGI for `Clc1ccc2c(NCCNCCNCCNc3ccnc4cc(Cl)ccc34)ccnc2c1`
output: 5.36 µM

Next compound, TGI to be filled in.
input: Using known records, supply TGI for `Clc1ccc2c(NCCCNCCNCCCNc3ccnc4cc(Cl)ccc34)ccnc2c1`
output: 4.74 µM

---

- Test system: Plasmodium falciparum
- test: Antimalarial activity against asexual erythrocyte stages of chloroquine-resistant Plasmodium falciparum Dd2
- Format: functional, organism-based
pIC50: −log10 of the molar value.
Classification field: Criterion met = pIC50 at or over 6; Criterion not met = pIC50 under 6.

Reference set, count: 5
input: Item `Cc1cccc2nccc(NCCCNCCNCCCNc3ccnc4cccc(C)c34)c12` with pIC50 of 6 or above?
output: Criterion met

input: Item `c1ccc2c(c1)nc(NCCNCCNCCNc1nc3ccccc3n3cccc13)c1cccn12` with pIC50 of 6 or above?
output: Criterion not met

input: Item `Cc1cccc2nccc(NCCCNCCNc3ccnc4cccc(C)c34)c12` with pIC50 of 6 or above?
output: Criterion met

input: Item `Cc1cccc2nccc(NCCCNCCCNc3ccnc4cccc(C)c34)c12` with pIC50 of 6 or above?
output: Criterion met

input: Item `Clc1ccc2c(NCCCNCCNCCCNc3ccnc4cc(Cl)ccc34)ccnc2c1` with pIC50 of 6 or above?
output: Criterion met

New cases:
input: Item `c1ccc2c(c1)nc(NCCCNCCCNc1nc3ccccc3n3cccc13)c1cccn12` with pIC50 of 6 or above?
output: Criterion met

input: Item `Cc1cccc2nccc(NCCCN(C)CCCNc3ccnc4cccc(C)c34)c12` with pIC50 of 6 or above?
output: Criterion not met

input: Item `c1ccc2c(c1)nc(NCCNCCNc1nc3ccccc3n3cccc13)c1cccn12` with pIC50 of 6 or above?
output: Criterion not met

input: Item `Clc1ccc2c(NCCCNCCNc3ccnc4cc(Cl)ccc34)ccnc2c1` with pIC50 of 6 or above?
output: Criterion met

input: Item `Clc1ccc2c(NCCNCCNCCNc3ccnc4cc(Cl)ccc34)ccnc2c1` with pIC50 of 6 or above?
output: Criterion met

input: Item `CN(CCCNc1ccnc2cc(Cl)ccc12)CCCNc1ccnc2cc(Cl)ccc12` with pIC50 of 6 or above?
output: Criterion met

input: Item `Cc1cccc2nccc(NCCNCCNc3ccnc4cccc(C)c34)c12` with pIC50 of 6 or above?
output: Criterion met
